# Ratio UBE2M WT to KO per entry
Test system: KBM7 cells (wild-type)
Assay: KBM7 CTG EC50 assay (UBE2M wild-type)
Format: cell-based, human
Conditions: ratio of anti-proliferative activity in KBM7 wild-type versus UBE2M knock-out cells (fold)

Guide cases for Ratio UBE2M WT to KO, answers given:
Compound	Test target	Outcome measure	Result value
Cc1ccc2c(CC(=O)Nc3ccc(C(C)C)cn3)coc2c1C	KBM7 cells (wild-type)	Ratio UBE2M WT to KO	>8
Cc1ccc2c(CC(=O)Nc3cc(C4CC4)[nH]n3)coc2c1C	KBM7 cells (wild-type)	Ratio UBE2M WT to KO	>10

Query (compound): O=C(Nc1ncc(C(F)(F)F)s1)C1CC(=O)N(c2cc(F)ccc2F)C1 (stereo not shown) ; field requested: Ratio UBE2M WT to KO >10

Tell me the measured Ratio UBE2M WT to KO of Cc1ccc(N2CC(C(=O)Nc3ncc(C(F)(F)F)s3)CC2=O)cc1 (stereo not shown) , please. >10
